- ASSAYED_TARGET: ghrelin receptor (HEK-GHSR1 stable cells) (Homo sapiens, UniProt Q92847)
- Construct: expressed in transfected cells
- ASSAY_EXPLANATION: Ghrelin receptor inverse agonist assay (HTRF IP-one), Method B4
- Format: cell-based
pIC50: −log10 of the molar value.
Task for the reader: assign each of the following compounds its reported pIC50.

Task item: Give the measured pIC50 of CC[C@@H]1NCC2CCc3cccc(c3O2)CCCNC(=O)[C@@H](Cc2ccccc2)NC(=O)[C@H](C(C)O)N(C)C1=O (some centres unmarked) [Compound 1780] .
Reply: 7.00 to 7.30

Task item: Suppose we examine the compound CC(C)[C@@H]1NCCOc2ccccc2C#CCNC(=O)[C@@H](Cc2ccccc2)NC(=O)[C@H](C(C)O)N(C)C1=O (some centres unmarked) [Compound 1712] ; what pIC50 value has been reported?
Reply: 7.00 to 7.30

Task item: Recorded pIC50 for CC(O)[C@H]1C(=O)N[C@H](Cc2ccccc2)C(=O)NCC#Cc2ccc(F)cc2OCCN[C@@H](C2(C)CC2)C(=O)N1C (some centres unmarked) [Compound 1918] , please?
Reply: 7.00 to 7.30

Task item: Could you share which pIC50 value was measured for Cc1cccc(C[C@H]2NC(=O)[C@H](C(C)O)N(C)C(=O)[C@H](C(C)C)NCCOc3ccccc3C[C@H](O)CNC2=O)c1 (some centres unmarked) [Compound 1453] ?
Reply: 7.30 to 8.00

Task item: What does the record list as pIC50 for CC(O)[C@H]1C(=O)N[C@H](Cc2ccccc2)C(=O)NCC#Cc2ccccc2OCCN[C@@H](C2(C)CC2)C(=O)N1C (some centres unmarked) [Compound 1878] ?
Reply: 7.30 to 8.00

Task item: Need pIC50 of CC(O)[C@H]1C(=O)N[C@H](Cc2ccccc2)C(=O)NCC#Cc2c(F)cccc2OCCN[C@@H](C2(C)CC2)C(=O)N1C (some centres unmarked) [Compound 1876] , thanks.
Reply: 7.00 to 7.30

Task item: What measured pIC50 goes with CC(O)[C@H]1C(=O)N[C@H](Cc2ccccc2)C(=O)NCCCc2cccc3c2OC(CC3)CN[C@@H](C2CC2)C(=O)N1C (some centres unmarked) [Compound 1778] ?
Reply: 6.30 to 7.00

Task item: Recorded pIC50 of CC(C)[C@@H]1NCCOc2ccccc2C[C@H](O)[C@@H](C)NC(=O)[C@@H](Cc2cccc(F)c2)NC(=O)[C@H](C(C)O)N(C)C1=O (some centres unmarked) [Compound 1503] , please.
Reply: 7.30 to 8.00

Task item: For the compound shown here, CC[C@@H]1CCc2ccc(F)cc2OCCN[C@@H](C(C)C)C(=O)N(C)[C@@H](C(C)O)C(=O)N[C@H](Cc2c[nH]c3ccccc23)C(=O)N1 (some centres unmarked) [Compound 1505] , give the reported pIC50.
Reply: 6.30 to 7.00

Task item: Recorded pIC50 for CC(C)[C@@H]1NCCOc2cccc(F)c2C#CCNC(=O)[C@@H](Cc2ccccc2)NC(=O)[C@H](C(C)O)N(C)C1=O (some centres unmarked) [Compound 1929] , please?
Reply: 7.00 to 7.30

Task item: What value of pIC50 has been recorded for this entry: CC(C)[C@@H]1NCCOc2ccccc2C#C[C@@H](C)NC(=O)[C@@H](Cc2ccccc2)NC(=O)[C@H](C(C)O)N(C)C1=O (some centres unmarked) [Compound 1688]
Reply: 7.00 to 7.30

====

Kindly state IC50 for each of the entries shown.
- ASSAYED_TARGET: human ghrelin receptor (GRLN, growth hormone secretagogue receptor, hGHS-R1a) (Homo sapiens, UniProt Q92847)
- Construct: purchased PerkinElmer BioSignal #RBHGHSM, lot#1887; host or cells: HEK-293 cells, stably transfected (membranes)
- Sequence (Q92847 whole entry): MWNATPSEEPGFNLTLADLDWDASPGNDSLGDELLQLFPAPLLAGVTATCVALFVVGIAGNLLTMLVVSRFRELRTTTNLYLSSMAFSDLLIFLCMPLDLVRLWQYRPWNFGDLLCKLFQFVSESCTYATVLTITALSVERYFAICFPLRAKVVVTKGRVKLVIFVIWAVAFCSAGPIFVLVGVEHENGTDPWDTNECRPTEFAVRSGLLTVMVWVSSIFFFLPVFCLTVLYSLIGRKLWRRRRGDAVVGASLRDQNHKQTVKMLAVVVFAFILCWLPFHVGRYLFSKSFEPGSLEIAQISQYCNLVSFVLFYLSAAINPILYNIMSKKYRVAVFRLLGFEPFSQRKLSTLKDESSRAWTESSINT
- ASSAY_EXPLANATION: Competitive radioligand binding assay (ghrelin receptor), Method B1
- CONDITION_DETAILS: Ghrelin receptor binding activity, Method B1

Task item: Would you kindly share the measured IC50 for CCC(C)C1NCCOc2cc(F)ccc2C=CCNC(=O)C(Cc2ccc(Cl)cc2)NC(=O)C(C(C)O)N(C)C1=O (stereo not drawn) ?
Reply: 1 to 10 nM

Task item: Query (molecule): CC(C)[C@@H]1NCCOc2cc(F)ccc2CC[C@@H](C)NC(=O)[C@@H](Cc2ccc(Cl)cc2)NC(=O)[C@H](C(C)O)N(C)C1=O (stereo partly drawn) ; field requested: IC50
Reply: 1 to 10 nM

Task item: May I ask what IC50 has been recorded for CC[C@@H]1CCc2c(F)cccc2OCCN[C@@H](C(C)C)C(=O)N(C)[C@@H](C(C)O)C(=O)N[C@H](Cc2cccc(F)c2)C(=O)N1 (stereo partly drawn) ?
Reply: 10 to 100 nM

Task item: Requested field: IC50. Item: CC(O)[C@H]1C(=O)N[C@H](Cc2ccccc2)C(=O)N[C@@H](C)/C=C/c2ccccc2OCCN[C@@H](C2CC2)C(=O)N1C (stereo partly drawn)
Reply: 10 to 100 nM

Task item: // returns reported IC50 for input CCC1CCc2ccc(F)cc2OCCNC(C(C)C)C(=O)N(C)C(C(C)O)C(=O)NC(C(C)c2ccccc2)C(=O)N1 (stereo not drawn)
Reply: 10 to 100 nM

Task item: Give the measured IC50 of CC[C@@H]1C#Cc2ccc(F)cc2OCCN[C@@H](C(C)C)C(=O)N(C)[C@@H](C(C)O)C(=O)N[C@H](Cc2ccccc2)C(=O)N1 (stereo partly drawn) .
Reply: 1 to 10 nM

Task item: Please look up its IC50: CC(O)[C@H]1C(=O)N[C@H](Cc2c[nH]c3ccccc23)C(=O)N[C@H](C)CCc2ccccc2OCCN[C@@H](C2CC2)C(=O)N1C (stereo partly drawn)
Reply: 10 to 100 nM

Task item: Quick one: IC50 for CC(C)C1CCc2ccccc2OCCNC(C(C)C)C(=O)N(C)C(C(C)O)C(=O)NC(Cc2ccccc2)C(=O)N1 (stereo not drawn) ?
Reply: 100 to 500 nM

Task item: # IC50 lookup, item CC(C)[C@@H]1NCCOc2ncccc2CC[C@@H](C)NC(=O)[C@@H](Cc2ccccc2)NC(=O)[C@H](C(C)O)N(C)C1=O (stereo partly drawn)
Reply: 10 to 100 nM

Task item: Please look up its IC50: CC[C@@H]1CCc2ccc(F)cc2OCCN[C@@H](C2(C)CC2)C(=O)N(C)[C@@H](C(C)O)C(=O)N[C@H](Cc2cccc(F)c2)C(=O)N1 (stereo partly drawn)
Reply: 10 to 100 nM

Task item: Requested read-out: IC50. Entry: CCC(C)[C@@H]1NC[C@H](C)Oc2ccccc2/C=C/CNC(=O)[C@@H](Cc2ccccc2)NC(=O)[C@H](C(C)O)N(C)C1=O (stereo partly drawn)
Reply: 100 to 500 nM

Task item: IC50 for CC(C)C[C@@H]1NCCOc2ccccc2/C=C/CNC(=O)[C@@H](Cc2ccc(Cl)cc2)NC(=O)[C@H](C(C)O)N(C)C1=O (stereo partly drawn) ?
Reply: 100 to 500 nM

====

- ASSAYED_TARGET: CYP3A4 (Homo sapiens)
- Sequence (P08684 whole entry): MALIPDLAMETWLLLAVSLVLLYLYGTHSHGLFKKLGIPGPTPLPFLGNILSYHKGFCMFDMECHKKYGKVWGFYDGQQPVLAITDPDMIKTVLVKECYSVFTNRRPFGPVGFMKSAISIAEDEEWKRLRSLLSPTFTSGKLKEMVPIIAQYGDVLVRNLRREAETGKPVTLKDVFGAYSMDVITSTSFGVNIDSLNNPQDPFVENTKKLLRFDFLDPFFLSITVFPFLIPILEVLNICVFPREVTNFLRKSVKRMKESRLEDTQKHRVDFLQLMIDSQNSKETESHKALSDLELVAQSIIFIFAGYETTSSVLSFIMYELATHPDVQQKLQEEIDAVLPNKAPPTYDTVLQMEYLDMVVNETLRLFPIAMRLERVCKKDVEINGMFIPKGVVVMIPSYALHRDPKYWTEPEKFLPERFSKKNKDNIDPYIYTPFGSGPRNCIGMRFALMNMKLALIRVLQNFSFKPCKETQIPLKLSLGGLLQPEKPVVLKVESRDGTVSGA
- ASSAY_EXPLANATION: Cytochrome P450 inhibition, Method B6 (two substrates)
- CONDITION_DETAILS: read-out: IC50 CYP 3A4; Table 4b; midazolam used as substrate
Could you please classify the records by IC50 using these ranges: LOW: < 1000 nM; MEDIUM: ≥ 1000 nM and < 2000 nM; HIGH: ≥ 2000 nM

Task item: Hi there! Could you help me figure out the category for CC(C)[C@@H]1NCCOc2ccccc2CC[C@@H](C)NC(=O)[C@@H](Cc2ccsc2)NC(=O)[C@H](C(C)O)N(C)C1=O (some centres unmarked) please?
Reply: HIGH

Task item: Place this molecule in its band: CC(O)[C@H]1C(=O)N[C@H](Cc2ccc(Cl)cc2)C(=O)NC/C=C/c2ccccc2OCCN[C@@H](C2(C)CC2)C(=O)N1C (some centres unmarked)
Reply: MEDIUM

Task item: Hi, small favor: classify CCC(C)[C@@H]1NCCOc2ccccc2/C=C/CNC(=O)[C@@H](Cc2ccccc2F)NC(=O)[C@H](C(C)O)N(C)C1=O (some centres unmarked) by its IC50 when you get a moment.
Reply: HIGH

Task item: Which bin, given its IC50, does CC(C)[C@@H]1NCCOc2ccc(F)cc2CC[C@@H](C)NC(=O)[C@@H](Cc2c[nH]c3ccccc23)NC(=O)[C@H](C(C)O)N(C)C1=O (some centres unmarked) occupy?
Reply: LOW

Task item: Lab note: sort CC(C)[C@@H]1NCCOc2ccccc2/C=C/CNC(=O)[C@@H](Cc2cccc(Cl)c2)NC(=O)[C@H](C(C)O)N(C)C1=O (some centres unmarked) into the matching IC50 band.
Reply: MEDIUM

Task item: The entry to classify is CC(C)[C@@H]1NCCOc2ccccc2/C=C/CNC(=O)[C@@H](Cc2cccc(O)c2)NC(=O)[C@H](C(C)O)N(C)C1=O (some centres unmarked) ; which class holds it?
Reply: HIGH

Task item: Which class holds CC(C)C1NCCOc2cc(F)ccc2C#CCNC(=O)C(Cc2c[nH]c3ccccc23)NC(=O)C(C(C)O)N(C)C1=O (centres unmarked) ?
Reply: HIGH

Task item: Could you place CC(O)[C@H]1C(=O)N[C@H](Cc2c[nH]c3ccccc23)C(=O)N[C@H](C)C#Cc2ccc(F)cc2O[C@H](C)CN[C@@H](C2(C)CC2)C(=O)N1C (some centres unmarked) in its proper category? Many thanks.
Reply: MEDIUM

Task item: Which IC50 category applies to CC[C@@H]1NCCOc2ccccc2/C=C/CNC(=O)[C@@H](Cc2ccc(Cl)cc2)NC(=O)[C@H](C(C)O)N(C)C1=O (some centres unmarked) here?
Reply: HIGH

Task item: Input CCC(C)[C@@H]1NCCOc2ccccc2CC[C@@H](C)NC(=O)[C@@H](Cc2ccccc2)NC(=O)[C@H](C(C)O)N(C)C1=O (some centres unmarked) ; output its category
Reply: MEDIUM

Task item: Which band does CCC(C)C1NCCOc2ccccc2C=CCNC(=O)C(Cc2ccc(Cl)cc2)NC(=O)C(C(C)O)N(C)C1=O (centres unmarked) fall in?
Reply: MEDIUM

Task item: Quick check: band for COc1ccccc1C[C@H]1NC(=O)[C@H](C(C)O)N(C)C(=O)[C@H](C(C)C)NCCOc2ccccc2CC[C@@H](C)NC1=O (some centres unmarked)
Reply: LOW

Task item: Category lookup for the molecule CC(C)[C@@H]1NCCOc2cccc(F)c2CC[C@@H](C)NC(=O)[C@@H](Cc2c[nH]c3ccccc23)NC(=O)[C@H](C(C)O)N(C)C1=O (some centres unmarked)
Reply: LOW

Task item: Please let me know in which category the item COC(C)[C@@H]1NCCOc2ccccc2/C=C/CNC(=O)[C@@H](Cc2ccccc2)NC(=O)[C@H](C(C)O)N(C)C1=O (some centres unmarked) belongs.
Reply: HIGH

Task item: Kindly state the category for this molecule: CC(C)[C@@H]1NCCOc2ccccc2CC[C@@H](C)NC(=O)[C@@H](Cc2c[nH]c3ccccc23)NC(=O)[C@H](C(C)O)N(C)C1=O (some centres unmarked)
Reply: HIGH

Task item: Assign a category based on measured IC50 for CCC(C)[C@@H]1NCCOc2ccccc2/C=C/CNC(=O)[C@@H](Cc2ccccc2)NC(=O)[C@H](C(C)O)N(C)C1=O (some centres unmarked) and give only the class name.
Reply: HIGH
